FYI, the data here is from PubChem BioAssay (NCATS).

- ASSAY_PROTOCOL: qHTS assay for small molecule agonists of the antioxidant response element (ARE) signaling pathway measured by Nrf2-dependant transcriptional activity - cell viability counter screen (AID 720653); also: % is scaled to controls: 0 for no effect and ±100 for the full control effect
- MEASUREMENT_CONTEXT: ARE-bla HepG2 viability, CellTiter-Glo ATP luminescence, 16 h; hits give low values
- Description: National Center for Advancing Translational Sciences [NCATS] NIH Chemical Genomics Center [NCGC] U.S. Environmental Protection Agency [EPA] National Institutes of Environmental Health Sciences [NIEHS] National Toxicology Program [NTP] […] The activation of the report gene under culture conditions can be detected by fluorescence intensity. The cytotoxicity of the compounds against the ARE-bla HepG2 cell line was quantified by measuring the intracellular ATP content. […]
Inconclusive results are not listed.
MEASURED_QUANTITY: max response (%)
A number alone suffices; assume %.

Input line: Tell me the measured max response of "CC(=O)Nc1nnc(S(N)(=O)=O)s1" , please.
Output line: 1.81

Input line: Please give the result for "CC(C)(Oc1ccc(CCNC(=O)c2ccc(Cl)cc2)cc1)C(=O)O" too.
Output line: -11.9

----------
- ASSAY_PROTOCOL: qHTS assay to identify small molecule inhibitors of chordoma cells - UCH-2 (AID 1259356)
- MEASUREMENT_CONTEXT: UCH-2 chordoma viability, CellTiter-Glo ATP luminescence, 48 h; series mostly up to 46.1 µM
Inconclusive results are not listed. Calls of active or inactive are those of the source. The call rests on the fitted dose curve; in most records, active means well fitted cell-killing curve with a large enough effect; inconclusive means small, poorly fitted or top-dose-only effect; inactive means flat fitted curve, though single readings scatter.
Form entry, call: pick from Y for active, N for inactive

{"COMPOUND": "CCCCNC(=O)NS(=O)(=O)c1ccc(C)cc1", "ASSIGNED_CLASS": "N"}
{"COMPOUND": "COCC(=O)O[C@]1(CCN(C)CCCc2nc3ccccc3[nH]2)CCc2cc(F)ccc2[C@@H]1C(C)C", "ASSIGNED_CLASS": "Y"}
{"COMPOUND": "CCN(CC)CCNC(=O)c1cc(S(C)(=O)=O)ccc1OC", "ASSIGNED_CLASS": "N"}
{"COMPOUND": "CCN(CC)CCOCCOC(=O)C1(c2ccccc2)CCCC1", "ASSIGNED_CLASS": "N"}

Input line: Hi, sorry to bother you, what did the test record for "COc1ccc([C@@H]2Sc3ccccc3N(CCN(C)C)C(=O)[C@@H]2OC(C)=O)cc1" ?
Output line: N

Input line: Please give the result for COC(=O)C1=C(C)NC(C)=C(C(=O)OC(C)(C)CN(C)CCC(c2ccccc2)c2ccccc2)C1c1cccc([N+](=O)[O-])c1 (stereo unspecified) too.
Output line: N

Input line: Please give the result for "O=C(O)CP(=O)(O)O" too.
Output line: N

Input line: Please give the result for "O=C(O)CN(CCN(CC(=O)O)CC(=O)O)CCN(CC(=O)O)CC(=O)O" too.
Output line: N

----------
- ASSAY_PROTOCOL: Natriuretic polypeptide receptor (hNpr1) antagonism - Pilot counterscreen GloSensor control cell line (AID 1347045); also: % is scaled to controls: 0 for no effect and ±100 for the full control effect
- MEASUREMENT_CONTEXT: HEK293 cGMP GloSensor cells, SNP-stimulated luminescence, 20 min; series mostly up to 38.3 µM
Results filed as inconclusive are left out. Calls of active or inactive are those of the source. Calls come from the whole dose curve.
Form entry, call: pick from active, inactive

{"COMPOUND": "CCc1c(C)[nH]c2c1C(=O)C(CN1CCOCC1)CC2 (stereo not drawn)", "ASSIGNED_CLASS": "inactive"}
{"COMPOUND": "CC1=NS(=O)(=O)c2cc(Cl)ccc2N1", "ASSIGNED_CLASS": "inactive"}
{"COMPOUND": "Cc1cc(C)c(/C=C2\\C(=O)Nc3ccccc32)[nH]1", "ASSIGNED_CLASS": "inactive"}
{"COMPOUND": "CCCCNc1c(C(=O)OCC)c(C)nc2c1cnn2CC", "ASSIGNED_CLASS": "inactive"}
{"COMPOUND": "CCn1ccnc1CC1COc2ccccc2O1 (stereo not drawn)", "ASSIGNED_CLASS": "inactive"}

Note: attention shifts to another entry.
Input line: Hi, sorry to bother you, what did the test record for "C[N+](C)(C)CCOC(=O)CCC(=O)OCC[N+](C)(C)C" ?
Output line: inactive

----------
- Test system: CP250
- ASSAY_PROTOCOL: qHTS profiling for inhibitors of Plasmodium falciparum proliferation (AID 504749);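 also: 0% = DMSO vehicle and full inhibition = artemisinin control; nearly all actives have a fitted effect of over 60% in size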
- MEASUREMENT_CONTEXT: P. falciparum in erythrocytes, SYBR Green DNA, 72 h; series mostly up to 28.7 µM
Results filed as inconclusive are left out. Calls of active or inactive are those of the source. Calls come from the whole dose curve; as a rule, active = well fitted inhibition curve with a large enough effect; inconclusive = small, poorly fitted or top-dose-only effect; inactive = flat fitted curve, though single readings scatter.
Form entry, call: pick from active, inactive

Solved cases (2 shown):
{"MOLECULE": "CN=C(NC#N)NCCSCc1nc[nH]c1C", "ASSIGNED_CLASS": "inactive"}
{"MOLECULE": "NC1=NCC2c3ccccc3Cc3ccccc3N12 (configuration not stated)", "ASSIGNED_CLASS": "inactive"}

Input line: Hi, sorry to bother you, what did the test record for "C[C@H](CS)C(=O)N1CCC[C@H]1C(=O)O" ?
Output line: inactive

Input line: Please give the result for "CCN(CC)CC(=O)Nc1c(C)cccc1C" too.
Output line: inactive

Input line: Please give the result for CC(C(=O)O)c1ccc(CC2CCCC2=O)cc1 (configuration not stated) too.
Output line: inactive

----------
- ASSAY_PROTOCOL: Primary qHTS for inhibitors of nuclear receptor binding SET domain protein 2 (NSD2) in an isogenic RCH-ACV NSD2 p.E1099K mutant (9B) (AID 1645876); also: nearly all actives have a fitted effect of over 70% in size
- MEASUREMENT_CONTEXT: RCH-ACV (leukaemia line) NSD2 E1099K (9B) viability, CellTiter-Glo, 72 h; series mostly up to 44.9 µM
Records with an inconclusive call do not appear. The source made the active and inactive calls. Calls follow the shape of the dose curve; as a rule, active = well fitted inhibition curve with a large enough effect; inconclusive = small, poorly fitted or top-dose-only effect; inactive = flat fitted curve, though single readings scatter.
MEASURED_QUANTITY: outcome

The examples below pair each entry with its known result.
{"COMPOUND": "NC(=O)N1c2ccccc2C=Cc2ccccc21", "outcome": "inactive"}
{"COMPOUND": "CN(C)C(=O)Oc1ccc[n+](C)c1", "outcome": "inactive"}
{"COMPOUND": "NC(=O)c1ncn([C@@H]2O[C@H](CO)[C@@H](O)[C@H]2O)c1O", "outcome": "inactive"}
{"COMPOUND": "C[C@]12CC[C@@H]3c4ccc(O)cc4C[C@@H](CCCCCCCCCS(=O)CCCC(F)(F)C(F)(F)F)[C@H]3[C@@H]1CC[C@@H]2O (stereo partly drawn)", "outcome": "inactive"}
{"COMPOUND": "CCN(CC)CCNC(=O)c1cc(S(C)(=O)=O)ccc1OC", "outcome": "inactive"}

Input line: Tell me the measured outcome of "Cc1scc2c1N(C(=O)CN1CCN(C)CC1)c1ccccc1NC2=O" , please.
Output line: inactive

Input line: Please give the result for "Cc1ccc(=O)n(-c2ccccc2)c1" too.
Output line: inactive

Input line: Please give the result for "CC(C)NNC(=O)c1ccncc1" too.
Output line: inactive

----------
- SYSTEM_UNDER_TEST: Thioredoxin reductase 1, cytoplasmic (Rattus norvegicus)
- ASSAY_PROTOCOL: qHTS Assay for Inhibitors of Mammalian Selenoprotein Thioredoxin Reductase 1 (TrxR1) (AID 488773);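 also: drop in NADPH fluorescence over an 8 min run after selenite addition; % is scaled to controls: 0 for no effect and ±100 for the full control effect; nearly all actives have a fitted effect of over 40% in size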
- MEASUREMENT_CONTEXT: purified TrxR1 enzyme activity; inhibition; series mostly up to 57.1 µM
Results filed as inconclusive are left out. Activity calls are given as the source filed them. The call rests on the fitted dose curve; in most records, active means well fitted inhibition curve with a large enough effect; inconclusive means small, poorly fitted or top-dose-only effect; inactive means no such curve, though single readings can be large or run the other way.
Form entry, call: pick from active, inactive

Solved cases (10 shown):
{"COMPOUND": "CC(C)COCC(CN(Cc1ccccc1)c1ccccc1)N1CCCC1 (stereo not drawn)", "SYSTEM_UNDER_TEST": "Thioredoxin reductase 1, cytoplasmic (Rattus norvegicus)", "ASSIGNED_CLASS": "inactive"}
{"COMPOUND": "CC(=O)OC(C)C[N+](C)(C)C (stereo not drawn)", "SYSTEM_UNDER_TEST": "Thioredoxin reductase 1, cytoplasmic (Rattus norvegicus)", "ASSIGNED_CLASS": "inactive"}
{"COMPOUND": "COc1ccc2c(c1OC)C(=O)O[C@@H]2[C@H]1c2c(cc3c(c2OC)OCO3)CCN1C", "SYSTEM_UNDER_TEST": "Thioredoxin reductase 1, cytoplasmic (Rattus norvegicus)", "ASSIGNED_CLASS": "inactive"}
{"COMPOUND": "COCCc1ccc(OCC(O)CNC(C)C)cc1 (stereo not drawn)", "SYSTEM_UNDER_TEST": "Thioredoxin reductase 1, cytoplasmic (Rattus norvegicus)", "ASSIGNED_CLASS": "inactive"}
{"COMPOUND": "O=C1CC2(CCCC2)CC(=O)N1CCCCN1CCN(c2ncccn2)CC1", "SYSTEM_UNDER_TEST": "Thioredoxin reductase 1, cytoplasmic (Rattus norvegicus)", "ASSIGNED_CLASS": "inactive"}
{"COMPOUND": "CC(=O)Nc1nnc(S(N)(=O)=O)s1", "SYSTEM_UNDER_TEST": "Thioredoxin reductase 1, cytoplasmic (Rattus norvegicus)", "ASSIGNED_CLASS": "inactive"}
{"COMPOUND": "CN(C)CCOC(=O)COc1ccc(Cl)cc1", "SYSTEM_UNDER_TEST": "Thioredoxin reductase 1, cytoplasmic (Rattus norvegicus)", "ASSIGNED_CLASS": "inactive"}
{"COMPOUND": "CC1=NS(=O)(=O)c2cc(Cl)ccc2N1", "SYSTEM_UNDER_TEST": "Thioredoxin reductase 1, cytoplasmic (Rattus norvegicus)", "ASSIGNED_CLASS": "inactive"}
{"COMPOUND": "CC(C)NNC(=O)c1ccncc1", "SYSTEM_UNDER_TEST": "Thioredoxin reductase 1, cytoplasmic (Rattus norvegicus)", "ASSIGNED_CLASS": "inactive"}
{"COMPOUND": "CN(C)C/C=C(/c1ccc(Br)cc1)c1cccnc1", "SYSTEM_UNDER_TEST": "Thioredoxin reductase 1, cytoplasmic (Rattus norvegicus)", "ASSIGNED_CLASS": "inactive"}

Input line: Hi, sorry to bother you, what did the test record for "Cc1cc(C)c(/C=C2\C(=O)Nc3ccccc32)[nH]1" ?
Output line: inactive

Input line: Please give the result for "CSc1ccc(C(=O)c2[nH]c(=O)[nH]c2C)cc1" too.
Output line: inactive

Input line: Please give the result for "NC(=O)c1cn(Cc2c(F)cccc2F)nn1" too.
Output line: inactive
